Recorded values, source patent US20250250357A1.

Molecular target: T1, human MSLN-R3 protein (human, UniProt Q13421 487-598)
T1 construct: also called hMSLN-R3
T1 sequence (Q13421 495-606, form in doubt): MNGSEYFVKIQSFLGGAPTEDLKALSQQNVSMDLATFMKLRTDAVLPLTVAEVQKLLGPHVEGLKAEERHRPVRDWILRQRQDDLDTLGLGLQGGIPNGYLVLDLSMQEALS
Assay: ELISA on coated antigen, antibody 10 nM
readout kind: OD450
Write the numeric value and append its unit.

Data request: Consider the binder F7.33.24-H7 (scFv, not shown: small tags and cut ends, also called S009-F7.33.24 humanized antibody VH2 + VL1) scFv: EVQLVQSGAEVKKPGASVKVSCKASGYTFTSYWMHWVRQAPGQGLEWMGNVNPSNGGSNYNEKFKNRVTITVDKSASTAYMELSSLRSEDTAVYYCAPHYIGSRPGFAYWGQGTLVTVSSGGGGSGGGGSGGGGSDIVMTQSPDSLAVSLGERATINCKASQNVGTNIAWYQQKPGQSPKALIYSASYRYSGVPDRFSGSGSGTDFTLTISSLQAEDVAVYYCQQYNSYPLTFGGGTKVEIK and give its recorded OD450.
Data returned: 1.52 OD450
